Test: The drug is tested on the gut metagenome community of MV11 with ENA study accession number: PRJEB31790 and ENA sample accession number: SAMEA5537492 for biotransformation. The drug concentrations were measured over 9 timepoints collected between 0 and 24 hours of incubation by liquid-chromatography-coupled mass spectrometry (LC–MS)
Assay type: ADME
Parameters: dose 2 uM, timepoint 0, 1, 2, 4, 6, 8, 12, 18, 24 hours
Settings: 2 µM
measured.quantity: Bacterial Biotransformation

INSERT INTO measurements (compound, result_value) VALUES
  ('C[C@@H]1C[C@H]2[C@@H]3CCC4=CC(=O)C=C[C@]4(C)[C@@]3(F)[C@@H](O)C[C@]2(C)[C@@]1(O)C(=O)CO [DEXAMETHASONE]', 'Compound NOT metabolized'),
  ('CC(=O)OCC(CCn1cnc2cnc(N)nc21)COC(C)=O [FAMCICLOVIR]', 'Compound metabolized'),
  ('COc1ccc([C@@H]2Sc3ccccc3N(CCN(C)C)C(=O)[C@@H]2OC(C)=O)cc1 [DILTIAZEM]', 'Compound NOT metabolized'),
  ('C#C[C@]1(OC(C)=O)CC[C@H]2[C@@H]3CCC4=CC(=O)CC[C@@H]4[C@H]3CC[C@@]21C [NORETHINDRONE ACETATE]', 'Compound metabolized');

* * *

Conditions: bacteroides thetaiotaomicron, 12 h, 2 µM
Description: The drug is tested on Bacteroides thetaiotaomicron strain: VPI-5482 for biotransformation. The drug concentrations were measured before and after a 12-h incubation by liquid-chromatography-coupled mass spectrometry (LC–MS)
measured.quantity: Bacterial Biotransformation

INSERT INTO measurements (compound, result_value) VALUES
  ('Cc1nc2n(c(=O)c1CCN1CCC(c3noc4cc(F)ccc34)CC1)CCCC2O (centres undefined) [PALIPERIDONE]', 'Compound NOT metabolized'),
  ('CN1CCC[C@@H]1CCO[C@](C)(c1ccccc1)c1ccc(Cl)cc1.O=C(O)/C=C/C(=O)O [CLEMASTINE FUMARATE]', 'Compound NOT metabolized'),
  ('O=C1[C@H](CC[C@H](O)c2ccc(F)cc2)[C@@H](c2ccc(O)cc2)N1c1ccc(F)cc1 [EZETIMIBE]', 'Compound NOT metabolized');

* * *

Assay: The drug is tested on Enterococcus faecalis strain: V583 for biotransformation. The drug concentrations were measured before and after a 12-h incubation by liquid-chromatography-coupled mass spectrometry (LC–MS)
Conditions: 2 µM
measured.quantity: Bacterial Biotransformation

INSERT INTO results (compound, result_value) VALUES
  ('CC(C)NCC(O)COc1ccc(CC(N)=O)cc1 (centres undefined)', 'Compound NOT metabolized'),
  ('OCCN1CCN(CCCN2c3ccccc3Sc3ccc(C(F)(F)F)cc32)CC1', 'Compound NOT metabolized'),
  ('COC1=CC(=O)C[C@@H](C)[C@]12Oc1c(Cl)c(OC)cc(OC)c1C2=O', 'Compound NOT metabolized'),
  ('CC(CCc1ccccc1)NCC(O)c1ccc(O)c(C(N)=O)c1 (centres undefined)', 'Compound NOT metabolized'),
  ('CC(Oc1c(Cl)cccc1Cl)C1=NCCN1 (centres undefined)', 'Compound NOT metabolized'),
  ('CCC(COC(=O)c1cc(OC)c(OC)c(OC)c1)(c1ccccc1)N(C)C.O=C(O)/C=C\C(=O)O (centres undefined)', 'Compound metabolized'),
  ('C#C[C@]1(OC(C)=O)CC[C@H]2[C@@H]3CCC4=C/C(=N/O)CC[C@@H]4[C@H]3CC[C@@]21CC [NORGESTIMATE]', 'Compound NOT metabolized'),
  ('COC(=O)C(c1ccccc1)C1CCCCN1 (centres undefined) [METHYLPHENIDATE]', 'Compound NOT metabolized'),
  ('CNC(=C[N+](=O)[O-])NCCSCc1ccc(CN(C)C)o1', 'Compound metabolized');
